Tested on: Heat shock protein 90 (Plasmodium falciparum), GFP-tagged
Assay: competitive binding to P. falciparum Hsp90 – cell lysate, FLECS, GFP-tagged PfHsp90, E. coli lysate, confirmation (AID 1920066)
Settings: E. coli lysate PfHsp90-GFP ATP-resin elution, fluorescence; at 500 µM; active compounds read high
assayEndpoint: relative binding (F/Fo)

Some solved cases for reference:
Request: What relative binding (F/Fo) value was documented for this compound, Cc1ccc(C(C)C)c(OCC(=O)Nc2cccc3cnccc23)c1 ?
Response: 2.15

Request: # input compound: Cn1cc(S(=O)(=O)N2CCN(C(=O)c3ccc(F)cc3)CC2)cc1C(N)=O ; wanted: its relative binding (F/Fo)
Response: 2.06

I. CS(=O)(=O)c1cccc(C(=O)Nc2nc3ccccc3nc2N2CCCC2)c1
II. CCOC(=O)NCc1ccc(-n2c(-c3cc(C(C)C)c(O)cc3O)n[nH]c2=S)cc1
Request: Hey, which is lower on measured relative binding (F/Fo), I or II ? Answer with the label corresponding to your selection.
Response: I
(I: 2.59, II: 4.9)
